# assayed.system: Bcl-2-like protein 1 (Homo sapiens)
# assay.info: Bcl-XL binding to Bim peptide disruption – biochemical, multiplexed, bead flow cytometry, human Bcl-XL, dose response (AID 1322); also: test concentration not given here
# condition.description: Bead-based flow cytometry, MCF
Active and inactive are the calls of the source. No rule for the calls is given here.
readout.name: inhibition

Before answering, review these 5 worked examples.
query: Return reported inhibition; argument: "O=[N+]([O-])c1ccc(-c2cn(-c3ccc(Cl)cc3)c(=S)[nH]2)cc1"
result: inactive

query: For "O=C(CSc1ccc(-c2ccccc2)nn1)NCc1ccco1" , what is its reported inhibition?
result: inactive

query: Look at this compound and give its reported inhibition. CS(=O)(=O)NN1C(=O)c2ccccc2NC1c1cccs1 (configuration not stated)
result: inactive

query: I'd like to know its inhibition. The compound in question is "O=C(NCCCO)Nc1ccc2nc(-c3ccco3)c(-c3ccco3)nc2c1"
result: inactive

query: Look at this compound and give its reported inhibition. "CCOc1cc(/C=N/NC(N)=O)ccc1OCC(=O)Nc1ccc(C)c(C)c1"
result: inactive

Others:
query: What value of inhibition has been reported for the following compound? "CC(C)CNC(=O)c1cccc(NC(=O)c2ccc(Cl)c([N+](=O)[O-])c2)c1"
result: inactive

query: Recorded inhibition for "CSc1nnc2ccc(-c3cccs3)nn12" , please?
result: inactive

query: Quick check: inhibition of "Cc1ccc(C)c(/C=C/C(=O)c2ccccc(=O)c2O)c1" ?
result: inactive

query: Query (compound): "Cc1ccc(S(=O)(=O)NC(=O)COc2ccccc2C)cc1" ; field requested: inhibition
result: inactive

query: Reported inhibition for "Cc1cc(Cl)ccc1N=c1ssnc1Cl" : what is it?
result: inactive

query: Which inhibition is reported for this compound? "CCN(CC)c1ccc(NC(=O)COc2ccccc2C#N)cc1S(=O)(=O)Nc1ccccc1OC"
result: inactive

query: Which measured inhibition value corresponds to COc1cc2c(cc1OC)C(c1ccccc1F)OC(=O)C2 (configuration not stated) ?
result: inactive

query: Data request, read-out inhibition, for "Cn1c(=O)[nH]c(=O)c2c1nc(N1CCOCC1)n2CCSc1nc2ccccc2[nH]1"
result: inactive
